- EXPERIMENTAL_SYSTEM: T1, human IL-12Rβ2 (human, UniProt Q99665 24-862)
- T1 construct: Expressed on HEK293T cells transiently transfected with a pcDNA3 plasmid (Genscript clone OHu21785); also called hIL-12RB2; IL-12 receptor β2 subunit
- T1 sequence: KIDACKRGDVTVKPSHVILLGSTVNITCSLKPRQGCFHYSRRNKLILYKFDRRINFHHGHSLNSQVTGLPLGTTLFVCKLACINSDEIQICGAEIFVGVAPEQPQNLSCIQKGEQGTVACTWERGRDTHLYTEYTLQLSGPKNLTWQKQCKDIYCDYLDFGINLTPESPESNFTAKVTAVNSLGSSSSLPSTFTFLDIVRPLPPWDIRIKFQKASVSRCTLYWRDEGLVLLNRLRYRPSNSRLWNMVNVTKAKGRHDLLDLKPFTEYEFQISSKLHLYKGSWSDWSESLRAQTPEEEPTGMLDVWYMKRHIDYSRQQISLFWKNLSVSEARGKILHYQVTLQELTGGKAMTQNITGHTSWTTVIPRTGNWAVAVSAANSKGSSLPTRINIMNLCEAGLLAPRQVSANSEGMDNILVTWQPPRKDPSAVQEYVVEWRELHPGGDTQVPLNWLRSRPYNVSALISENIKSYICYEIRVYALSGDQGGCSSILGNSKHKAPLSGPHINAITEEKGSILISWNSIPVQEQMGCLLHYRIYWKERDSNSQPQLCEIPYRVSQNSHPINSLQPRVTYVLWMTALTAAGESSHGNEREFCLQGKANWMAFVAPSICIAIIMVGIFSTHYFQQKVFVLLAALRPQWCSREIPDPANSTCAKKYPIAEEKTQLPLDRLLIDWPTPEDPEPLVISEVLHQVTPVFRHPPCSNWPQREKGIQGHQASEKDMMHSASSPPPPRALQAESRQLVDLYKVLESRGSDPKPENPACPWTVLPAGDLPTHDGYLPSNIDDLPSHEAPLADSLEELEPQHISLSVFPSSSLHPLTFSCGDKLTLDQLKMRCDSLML
- TEST_PROTOCOL: flow cytometry, P.E. on transfected HEK293T cells
Documented dMFI across a set of binders
Form field (numeric): enter value without unit.

# count of solved cases: 4
BINDER	dMFI
anti-IL-12Rβ2 VHH clone 3CRH5 (VHH, not shown: small tags and cut ends, periplasmic extract) VHH: QVQLQESGGGLVQAGGSLVLSCAASGSAALIFLMSWYRQAPGKQRELVAEVSRGGSTTYADSVEGRFTISRDNAKNIVDLQMNSLKPEDTAVYYCKADQNYGDSLRSSWGQGTQVTVSS	835
anti-IL-12Rβ2 VHH clone 2CRH73 (VHH, not shown: small tags and cut ends, periplasmic extract) VHH: QVQLQESGGGLVQAGGSLRLTCTASGSAALIFLMSWYRQAPGKQRELVAEVSRRGSTTYADSVEGRFTISRDNAKNIVDLQMNSLKPEDTAVYYCKADQYYGDSLRSSWGRGTQVTVSS	707
anti-IL-12Rβ2 VHH clone 3CRH18 (VHH, not shown: small tags and cut ends, periplasmic extract) VHH: QVQLQESGGGLVQPGGSLRLSCTASGNIVSIYNMDWYRQAPGNQREWVASITSSGDPYYDGSAKGRFTISRDNAKMTVYLQMNSLRPEDTAVYYCKVPTEKGNYWGQGTQVTVSS	918
anti-IL-12Rβ2 VHH clone 3CRHM35 (VHH, not shown: small tags and cut ends, periplasmic extract; also called 21057) VHH: QVQLQESGGGLVQAGGSLRLSCAASGRTFSNYAMAWFRQAPGTEREFVAGLSGSGGDTAFYDNSVMGRFTISRDSAKNTMWLQINNLKPEDTAVYYCAAATHVVVNYGLVRRRGTYDYWGQGTQVTVSS	826

INPUT: Which dMFI is reported for this binder? anti-IL-12Rβ2 VHH clone 3CAHS171 (VHH, not shown: small tags and cut ends, periplasmic extract) VHH: QVQLQESGGGLVQPGGSLRLTCVASGFPFSTHAMSWVRQPPGKGREWISAINSGGDSTDYADSVMGRFTISRDNAKNTVYLQMNSLKSEDTAAYYCAKYEDCSDYDCSSRASWGQGTQVTVSS
OUTPUT: 1280

INPUT: Now try anti-IL-12Rβ2 VHH clone 3CRH68 (VHH, not shown: small tags and cut ends, periplasmic extract) VHH: QVQLQESGGGLVQPGGSLRLSCTASGSILSIYNMDWYRQVPGNQREWVASITPSGDPYYDGSVKGRFTISRDNAKMMVYLQMNSLKPEDTAVYYCKVPTEKGNYWGQGTQVTVSS .
OUTPUT: 787
